- Tgt: E6 WT/E6AP (Human papillomavirus type 16, UniProt P03126)
- Sequence (P03126 8-158): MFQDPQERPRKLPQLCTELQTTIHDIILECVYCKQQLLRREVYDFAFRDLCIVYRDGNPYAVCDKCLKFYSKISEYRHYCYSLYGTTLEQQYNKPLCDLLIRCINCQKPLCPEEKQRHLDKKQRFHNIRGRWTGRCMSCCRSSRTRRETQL
- Protocol Summary: biochemical
- Format: binding
- Condition Label: at 24 h; E6 WT; read-out: BLI maximal Inhibition (max %) E6 WT/E6AP

[
  {
    "Compound": "COc1cccc(CCc2nc(N3CCN(C(=O)/C=C/CN(C)C)CC3)c3c4c(sc3n2)CCCC4)c1",
    "Emax (%)": 100
  },
  {
    "Compound": "Cc1ccccc1C1c2ccsc2CCN1CC(=O)N1CCCN(C(=O)CCl)CC1 (centres unmarked)",
    "Emax (%)": 100
  },
  {
    "Compound": "C=CC(=O)N1CCN(c2nc(CCc3ccccc3F)nc3sc4c(c23)CCCC4)CC1",
    "Emax (%)": 90
  },
  {
    "Compound": "C=CC(=O)N1CCN(c2nc(CCc3cccc(OC)c3)nc3sc4c(c23)CCCC4)CC1",
    "Emax (%)": 100
  },
  {
    "Compound": "C=CC(=O)N1CCN(c2nc(CCc3cccc(F)c3)nc3sc4c(c23)CCCC4)CC1",
    "Emax (%)": 90
  },
  {
    "Compound": "C=CC(=O)N1CCN(c2nc(CCc3cccc(OC)c3)nc3sc4c(c23)CCCCC4)CC1",
    "Emax (%)": 100
  },
  {
    "Compound": "O=C(CCl)N1CCN(c2nc(CCc3ccccc3)nc3sc4c(c23)CCCC4)CC1",
    "Emax (%)": 100
  },
  {
    "Compound": "CC#CC(=O)N1CCN(c2nc(CCc3cccc(OC)c3)nc3sc4c(c23)CCCC4)CC1",
    "Emax (%)": 100
  }
]

----------
- Tgt: E6 WT/E6AP (Human papillomavirus type 16)
- Protocol Summary: biochemical
- Assay type: binding
- Condition Label: 10 μM compound, WT 16E6

[
  {
    "Molecule": "CC1CN(C(=O)CN2CCc3sccc3C2c2cccc(F)c2)CCN1C(=O)CCl (stereo not shown)",
    "Value Units": "%",
    "inhibition at 10 µM": 18
  },
  {
    "Molecule": "Cc1sc2nc(C3CC3)nc(N3CCN(C(=O)CCl)CC3)c2c1C",
    "Value Units": "%",
    "inhibition at 10 µM": 81
  },
  {
    "Molecule": "Cc1ccccc1C1c2ccsc2CCN1CC(=O)N1CCN(C(=O)CCl)C(C)C1 (stereo not shown)",
    "Value Units": "%",
    "inhibition at 10 µM": 49
  },
  {
    "Molecule": "CCc1nc(N2CCN(C(=O)CCl)CC2)c2c3c(sc2n1)CCCC3",
    "Value Units": "%",
    "inhibition at 10 µM": 24
  }
]
